System: neuroblastoma B103 cell line
methodNotes: MTT test: apoptosis induced by staurosporin
Format: cell-based
protocolConditions: test compound 1 μM alone, without staurosporin; B103 cells; staurosporin-only control = 100%
measurementName: Survival rate (%)
Kindly provide the numeric value in % only, without the unit symbol.

Past entries and their recorded results:
| molecule | assayValue |
| --- | --- |
| CC(C)=CCC[C@](C)(O)[C@H]1CC[C@]2(C)[C@@H]1[C@H](O)C[C@@H]1[C@@]3(C)CC[C@H](O)C(C)(C)[C@@H]3[C@@H](O)C[C@]12C | 169.7 |
| CC(C)=CCC[C@](C)(O[C@@H]1O[C@H](CO[C@@H]2O[C@@H](CO)[C@H](O)[C@H]2O)[C@@H](O)[C@H](O)[C@H]1O)[C@H]1CC[C@]2(C)[C@@H]1[C@H](O)C[C@@H]1[C@@]3(C)CC[C@H](O[C@@H]4O[C@H](CO)[C@@H](O)[C@H](O)[C@H]4O[C@@H]4O[C@H](CO)[C@@H](O)[C@H](O)[C@H]4O)C(C)(C)[C@@H]3CC[C@]12C [Ginsenoside Rc] | 191.4 |
| CC(C)=CCC[C@](C)(O[C@@H]1O[C@H](CO[C@@H]2O[C@@H](CO)[C@H](O)[C@H]2O)[C@@H](O)[C@H](O)[C@H]1O)[C@H]1CC[C@]2(C)[C@@H]1[C@H](O)C[C@@H]1[C@@]3(C)CC[C@H](O)C(C)(C)[C@@H]3CC[C@]12C [Ginsenoside Mc] | 178.6 |

Print neuroblastoma B103 cell line Survival rate (%) for CC(C)=CCCC(C)(O)[C@H]1CC[C@]2(C)[C@@H]1[C@H](O)C[C@@H]1[C@@]3(C)CC[C@H](O)C(C)(C)[C@@H]3CC[C@]12C (stereo in doubt) .
176.5
